target: Fes (UniProt P07332); assay: phosphorylation enrichment, bacterial display (enrichment ratio); higher = better substrate or ligand; peptides without Tyr show the background;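 further: 11-residue human phosphosite peptides and single-mutation variants displayed on the E. coli surface, counted by deep sequencing, each peptide's frequency after selection divided by its frequency in the unselected input library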;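 further: frequency after pTyr selection over input frequency; kinase dosed for 20-30% of maximal phosphorylation in three min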
Sequence (P07332 whole entry, looked up): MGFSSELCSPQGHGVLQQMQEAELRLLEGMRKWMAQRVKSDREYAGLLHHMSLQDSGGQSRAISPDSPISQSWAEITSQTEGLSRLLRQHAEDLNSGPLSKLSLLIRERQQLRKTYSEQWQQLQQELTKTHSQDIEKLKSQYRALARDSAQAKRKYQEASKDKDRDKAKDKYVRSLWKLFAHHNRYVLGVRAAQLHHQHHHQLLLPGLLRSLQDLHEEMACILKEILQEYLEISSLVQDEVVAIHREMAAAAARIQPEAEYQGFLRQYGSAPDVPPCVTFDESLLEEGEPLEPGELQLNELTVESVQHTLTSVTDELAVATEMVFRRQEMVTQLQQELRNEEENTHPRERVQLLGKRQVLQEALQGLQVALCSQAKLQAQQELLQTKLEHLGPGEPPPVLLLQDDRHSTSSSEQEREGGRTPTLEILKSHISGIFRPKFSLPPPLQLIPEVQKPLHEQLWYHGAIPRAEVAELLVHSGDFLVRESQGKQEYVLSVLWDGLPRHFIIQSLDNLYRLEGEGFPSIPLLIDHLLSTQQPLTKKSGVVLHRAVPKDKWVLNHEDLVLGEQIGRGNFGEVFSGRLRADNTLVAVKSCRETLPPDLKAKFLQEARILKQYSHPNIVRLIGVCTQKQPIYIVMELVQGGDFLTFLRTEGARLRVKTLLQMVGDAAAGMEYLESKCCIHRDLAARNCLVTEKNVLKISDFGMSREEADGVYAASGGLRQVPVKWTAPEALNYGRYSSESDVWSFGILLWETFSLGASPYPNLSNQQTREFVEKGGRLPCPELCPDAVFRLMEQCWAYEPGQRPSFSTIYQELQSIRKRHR
Please provide measured phosphorylation enrichment for the entries that follow.
// return a plain number; no unit text

Provide the documented phosphorylation enrichment with Fes (UniProt P07332) as the system for LTGIAYSLPHW [SLC22A14_Y291]
1.68

Provide the documented phosphorylation enrichment with Fes (UniProt P07332) as the system for IQVDAYFSPIH [ADSL_Y432]
1.33

Provide the documented phosphorylation enrichment with Fes (UniProt P07332) as the system for DEEEEYEFMNR [ERBB3_Y1197_D1194E_YF]
1.07

Provide the documented phosphorylation enrichment with Fes (UniProt P07332) as the system for TRYDEYLEVTK [MAP1A_Y2217_H2214Y]
1.25

Provide the documented phosphorylation enrichment with Fes (UniProt P07332) as the system for RSPLRYTSILT [OR51B6_Y130]
0.843

Provide the documented phosphorylation enrichment with Fes (UniProt P07332) as the system for IIGNGYFFRVF [MYBPC3_Y1135_YF]
0.98

Provide the documented phosphorylation enrichment with Fes (UniProt P07332) as the system for FSKRIYKGMVA [PCDH15_Y931]
0.534

Provide the documented phosphorylation enrichment with Fes (UniProt P07332) as the system for LDPDSYNVFEN [FOXC1_Y159_M161V]
2.2

Provide the documented phosphorylation enrichment with Fes (UniProt P07332) as the system for IFRASYFRKGG [ALK_Y1282_YF]
0.899

Provide the documented phosphorylation enrichment with Fes (UniProt P07332) as the system for SSSPTYLDLPF [GLI3_Y168_P169L]
0.667

Provide the documented phosphorylation enrichment with Fes (UniProt P07332) as the system for MFKPMYALFRT [HUWE1_Y4078_N4075K]
0.982

Provide the documented phosphorylation enrichment with Fes (UniProt P07332) as the system for SFTDPYAQPPL [KMT2D_Y2378_YF]
0.832

Provide the documented phosphorylation enrichment with Fes (UniProt P07332) as the system for DFDNLYFWDQD [ERBB2_Y1221_A1216D_YF]
1.71

Provide the documented phosphorylation enrichment with Fes (UniProt P07332) as the system for GSSKIYFLHAD [TLR5_Y108_P112A]
0.984

Provide the documented phosphorylation enrichment with Fes (UniProt P07332) as the system for CERLPYDANKW [FLT1_Y815_S818N]
1.16

Provide the documented phosphorylation enrichment with Fes (UniProt P07332) as the system for SGRSGYCLGTR [SCO1_Y60_P58S]
0.834

Provide the documented phosphorylation enrichment with Fes (UniProt P07332) as the system for YSTSPYLLEAA [BRIP1_Y921]
0.931

Provide the documented phosphorylation enrichment with Fes (UniProt P07332) as the system for CFTGKYTLPPG [HSPB1_Y142_R140G]
1.25

Provide the documented phosphorylation enrichment with Fes (UniProt P07332) as the system for VSGIPYGQPKQ [NEU1_Y251]
0.57

Provide the documented phosphorylation enrichment with Fes (UniProt P07332) as the system for VIKDKYPKARF [APTX_Y209_YF]
0.672

Provide the documented phosphorylation enrichment with Fes (UniProt P07332) as the system for KAIMIYVSSFY [ACTN4_Y260_T259I]
1.08

Provide the documented phosphorylation enrichment with Fes (UniProt P07332) as the system for RPSGRYPVARR [SHANK3_Y1569]
0.611

Provide the documented phosphorylation enrichment with Fes (UniProt P07332) as the system for LTNDRYLATLT [IL6ST_Y396]
1.07

Provide the documented phosphorylation enrichment with Fes (UniProt P07332) as the system for LNAGAYSKVVQ [PPT1_Y172]
0.974

Provide the documented phosphorylation enrichment with Fes (UniProt P07332) as the system for VAMDDYLKNVV [LRRK2_Y707_M712V]
0.919

Provide the documented phosphorylation enrichment with Fes (UniProt P07332) as the system for IENKLCGMSDP [RET_Y1062_Y1062C]
1.09

Provide the documented phosphorylation enrichment with Fes (UniProt P07332) as the system for IRKAEYPFSSE [ATP2C1_Y452]
0.758

Provide the documented phosphorylation enrichment with Fes (UniProt P07332) as the system for VDLSKYITTIA [FAS_Y232]
0.815

Provide the documented phosphorylation enrichment with Fes (UniProt P07332) as the system for NLRQQYNSPQE [UMPS_Y432_G429R]
0.587

Provide the documented phosphorylation enrichment with Fes (UniProt P07332) as the system for MEYAKYGSLRG [RET_Y809_V804M]
0.605

Provide the documented phosphorylation enrichment with Fes (UniProt P07332) as the system for VDSAHYQLLET [DTX3L_Y385_K386Q]
0.909

Provide the documented phosphorylation enrichment with Fes (UniProt P07332) as the system for GQECKYPPTQD [METAP2_Y137_E136K]
1.14

Provide the documented phosphorylation enrichment with Fes (UniProt P07332) as the system for EPFELYCEMGS [CBL_Y371_Q367P_YF]
1.55

Provide the documented phosphorylation enrichment with Fes (UniProt P07332) as the system for DGMADYSDPSF [CDC5L_Y459_YF]
1.2

Provide the documented phosphorylation enrichment with Fes (UniProt P07332) as the system for FIRRDYEACKA [BBS4_Y48_K46R_YF]
0.758

Provide the documented phosphorylation enrichment with Fes (UniProt P07332) as the system for VTQEQYELHCE [CBL_Y368_Y371H]
1.35

Provide the documented phosphorylation enrichment with Fes (UniProt P07332) as the system for FGFPGYQCKHF [TIMP3_Y177_S179C_YF]
0.789

Provide the documented phosphorylation enrichment with Fes (UniProt P07332) as the system for DFDNLYYWDQD [ERBB2_Y1221_A1216D]
1.96

Provide the documented phosphorylation enrichment with Fes (UniProt P07332) as the system for MKVPVYETPAG [PGM5_Y358]
1.08

Provide the documented phosphorylation enrichment with Fes (UniProt P07332) as the system for KYLENYYDLKK [MMP3_Y41]
0.99

Provide the documented phosphorylation enrichment with Fes (UniProt P07332) as the system for FIATQYSLCPR [LBR_Y166_R169C_YF]
1.07

Provide the documented phosphorylation enrichment with Fes (UniProt P07332) as the system for PVGVLYKVKVF [PTS_Y128_YF]
1.61

Measured values drawn from the supplement of paper PMC10065799 for this set.
